- Test system: Pseudomonas aeruginosa LL-1244
- ASSAY_NOTES: in vitro antibacterial MIC, agar plate dilution
- Format: cell-based
- DETAILS: Pseudomonas aeruginosa, LL1244, 18 h, 35° C., read-out: MIC
MEASUREMENT_LABEL: MIC

COMPOUND: CN1CCN(c2cc3c(cc2F)c(=O)c(C(=O)O)cn3C2CC2)CC1c1ccsc1 (stereo not drawn) [Example 66]
STUDY_SYSTEM: Pseudomonas aeruginosa LL-1244
READING: 16 µg/mL
//
COMPOUND: CCn1cc(C(=O)O)c(=O)c2cc(F)c(N3CCNC(C(C)(F)F)C3)c(F)c21 (stereo not drawn) [Example 117]
STUDY_SYSTEM: Pseudomonas aeruginosa LL-1244
READING: 8 µg/mL
//
COMPOUND: COCC1CN(c2cc3c(cc2F)c(=O)c(C(=O)O)cn3-c2ccc(F)cc2)CCN1 (stereo not drawn) [Example 82]
STUDY_SYSTEM: Pseudomonas aeruginosa LL-1244
READING: 32 µg/mL
//
COMPOUND: COCC1CN(c2cc3c(cc2F)c(=O)c(C(=O)O)cn3C2CC2)CCN1 (stereo not drawn) [Example 81]
STUDY_SYSTEM: Pseudomonas aeruginosa LL-1244
READING: 8 µg/mL
//
COMPOUND: CCn1cc(C(=O)O)c(=O)c2cc(F)c(N3CCNC(c4ccncc4)C3)cc21 (stereo not drawn) [Example 123]
STUDY_SYSTEM: Pseudomonas aeruginosa LL-1244
READING: 64 µg/mL
//
COMPOUND: O=C(O)c1cn(C2CC2)c2cc(N3CCNC(c4cc[nH]n4)C3)c(F)cc2c1=O (stereo not drawn) [Example 121]
STUDY_SYSTEM: Pseudomonas aeruginosa LL-1244
READING: 16 µg/mL
//
COMPOUND: CCn1cc(C(=O)O)c(=O)c2cc(F)c(N3CCN(C)C(c4ccnn4C)C3)cc21 (stereo not drawn) [Example 110]
STUDY_SYSTEM: Pseudomonas aeruginosa LL-1244
READING: 128 µg/mL
//
COMPOUND: CCn1cc(C(=O)O)c(=O)c2cc(F)c(N3CCNC(c4ccc(C)s4)C3)cc21 (stereo not drawn) [Example 37]
STUDY_SYSTEM: Pseudomonas aeruginosa LL-1244
READING: 64 µg/mL
//
COMPOUND: CCn1cc(C(=O)O)c(=O)c2cc(F)c(N3CCN(C)C(c4sc5ccccc5c4C)C3)cc21 (stereo not drawn) [Example 54]
STUDY_SYSTEM: Pseudomonas aeruginosa LL-1244
READING: > 256 µg/mL
//
COMPOUND: CCn1cc(C(=O)O)c(=O)c2cc(F)c(N3CCNC(c4cccnc4)C3)cc21 (stereo not drawn) [Example 122]
STUDY_SYSTEM: Pseudomonas aeruginosa LL-1244
READING: 32 µg/mL
//
COMPOUND: CN1CCN(c2c(F)c(F)c3c(=O)c(C(=O)O)cn(C4CC4)c3c2F)CC1 [Example 111]
STUDY_SYSTEM: Pseudomonas aeruginosa LL-1244
READING: 4 µg/mL
//
COMPOUND: CCn1cc(C(=O)O)c(=O)c2cc(F)c(N3CCNC(CF)C3)c(F)c21 (single isomer, unassigned; (-)) [Example 64]
STUDY_SYSTEM: Pseudomonas aeruginosa LL-1244
READING: 8 µg/mL
//
COMPOUND: CCn1cc(C(=O)O)c(=O)c2cc(F)c(N3CCNC(c4ccco4)C3)cc21 (stereo not drawn) [Example 28]
STUDY_SYSTEM: Pseudomonas aeruginosa LL-1244
READING: 32 µg/mL
//
COMPOUND: CCn1cc(C(=O)O)c(=O)c2cc(F)c(N3CCNC(c4ccsc4)C3)cc21 (stereo not drawn) [Example 30]
STUDY_SYSTEM: Pseudomonas aeruginosa LL-1244
READING: 32 µg/mL
//
COMPOUND: CCn1cc(C(=O)O)c(=O)c2cc(F)c(N3CCNC(CNC)C3)cc21.Cl.Cl (stereo not drawn) [Example 53]
STUDY_SYSTEM: Pseudomonas aeruginosa LL-1244
READING: > 128 µg/mL
